# Test Name: in vivo PK study, plasma 7,8-DHF after oral administration
# Parameters: species or system mice
# Condition Description: C57BL6, mouse, in vivo, po

Compound	bioavailability
O=c1cc(-c2ccccc2)oc2c(O)c(O)ccc12 [7,8-DHF, 7,8-dihydroxyflavone, reference compound]	~5%
